Biological target: T1, recombinant human CD3 epsilon/gamma heterodimer (human, UniProt P07766 23-126; P09693 23-116)
T1 construct: Recombinant heterodimer used as analyte in Octet; also called hCD3 E/G
T1 sequence (P07766 23-126, chain 1 of 2): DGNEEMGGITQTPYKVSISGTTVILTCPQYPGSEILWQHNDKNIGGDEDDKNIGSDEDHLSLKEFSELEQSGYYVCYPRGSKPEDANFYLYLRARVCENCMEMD
T1 sequence (P09693 23-116, chain 2 of 2): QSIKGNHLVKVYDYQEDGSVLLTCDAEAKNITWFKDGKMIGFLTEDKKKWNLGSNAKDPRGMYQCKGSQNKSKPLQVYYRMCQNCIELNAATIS
Assay: BLI (Octet), mAb 5 ug/mL on FAB2G sensor, hCD3 E/G 200-50 nM;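 also: antibodies purified from hybridoma supernatants, measured by Octet binding to recombinant human CD3 protein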
Parameter measured: Kd (nM)

INSERT INTO assay_data (binder, parameter_measured, reading_unit, recorded_measurement) VALUES
  ('ABL-CD3-86 (antibody, V domains shown, mAb purified from hybridoma; chimeric AlivaMab IgG (human VH, CH1 and upper hinge; mouse middle hinge, CH2, CH3; human light chain)) VH: EVQLVESGGGLVKPGGSLRLSCAASGFTFSRYSMNWVRQAPGKGLEWVSTISRSSRYIYYGDSVKGRFTISRDNAKNSLLLQMNSLRAEDTAVYYCARDHNWSFDYWGKGILVTVSS VL: NFMLTQPLSVSESPGKTLTISCTRNSGSIASNYVQWYRQRPGSSPTTVIYEDKQRPSGVPDRFSGSIDSSSNSASLTISGLKAEDEADYYCQSCDSSNVVFGGGTTLTVL', 'Kd', 'nM', 3.52),
  ('ABL-CD3-75 (antibody, V domains shown, mAb purified from hybridoma; chimeric AlivaMab IgG (human VH, CH1 and upper hinge; mouse middle hinge, CH2, CH3; human light chain)) VH: EVQLVESGGGLVKPGGSLRLSCAASGFTFSTYSLNWVRQAPGKGLEWVSSISVSSRYIYFADSVKGRFTISRDNAKNSLYLQMNSLRAEDTAVYYCARDRRELLLDYWGQGTLVTVSS VL: SYELTQPPSVSVSPGQTARITCSGDALPKKYAYWYQQKSGQAPVLVIYEDSKRPSGIPERFSGSSSGTMATLTISGAQVEDEADYYCYSTDSSGNHNWVFGGGTKLTVL', 'Kd', 'nM', 159),
  ('ABL-CD3-64 (antibody, V domains shown, mAb purified from hybridoma; chimeric AlivaMab IgG (human VH, CH1 and upper hinge; mouse middle hinge, CH2, CH3; human light chain)) VH: EVQVAESGGGLVKPGGSLRLSCAASGFTFSRYSMNWVRQAPGKGLEWVSSISSSGSYTYYADSVKGRFTISRDNAKNSLYLQMNSLRAEDTAVYYCVRERGKGAGMDVWGQGTTVTVSS VL: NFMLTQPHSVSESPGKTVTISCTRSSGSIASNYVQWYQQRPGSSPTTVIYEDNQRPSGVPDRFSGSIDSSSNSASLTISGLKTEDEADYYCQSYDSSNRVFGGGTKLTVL', 'Kd', 'nM', 71.9);
